// reported MBC for each item listed
# System: Escherichia coli
# assay.notes: Antibacterial activity against Escherichia coli ATCC 35210 after 72 hrs by serial sub-cultivation method
# Format: functional
# condition.summary: ATCC 35210, 72 h
measured.property: MBC (µM)

compound=O=C1CS/C(=N/c2nc(C34CC5CC(CC(C5)C3)C4)cs2)N1 units_label=µM reported_result=47.6
compound=O=C1N/C(=N/c2nc(C34CC5CC(CC(C5)C3)C4)cs2)S/C1=C\c1ccc(Cl)cc1 units_label=µM reported_result=43.8
compound=O=C1N/C(=N/c2nc(C34CC5CC(CC(C5)C3)C4)cs2)S/C1=C\c1ccc([N+](=O)[O-])cc1 units_label=µM reported_result=43
compound="CN[C@@H]1[C@H](O[C@H]2[C@H](O[C@H]3[C@H](O)[C@@H](O)[C@H](N=C(N)N)[C@@H](O)[C@@H]3N=C(N)N)O[C@@H](C)[C@]2(O)C=O)O[C@@H](CO)[C@H](O)[C@H]1O [STREPTOMYCIN]" units_label=µM reported_result=344

###

MFC reference
# Test system: Aspergillus versicolor
# assay.notes: Antifungal activity against Aspergillus versicolor ATCC 11730 after 72 hrs by serial sub-cultivation method
# Assay type: functional
# condition.summary: ATCC 11730, 72 h
measured.property: MFC

compound=O=C1N/C(=N/c2nc(C34CC5CC(CC(C5)C3)C4)cs2)S/C1=C\c1cccc(Cl)c1 experimental_target="Aspergillus versicolor" reported_result="21.9 µM"
compound=O=C1N/C(=N/c2nc(C34CC5CC(CC(C5)C3)C4)cs2)S/C1=C\c1ccccc1Cl experimental_target="Aspergillus versicolor" reported_result="21.9 µM"
compound="CC(=O)N1CCN(c2ccc(OCC3COC(Cn4ccnc4)(c4ccc(Cl)cc4Cl)O3)cc2)CC1 (stereo not drawn) [KETOCONAZOLE]" experimental_target="Aspergillus versicolor" reported_result="950 µM"
compound=COc1cc(/C=C2\S/C(=N\c3nc(C45CC6CC(CC(C6)C4)C5)cs3)NC2=O)ccc1O experimental_target="Aspergillus versicolor" reported_result="21.9 µM"
compound="c1ccc(-c2ccc(C(c3ccccc3)n3ccnc3)cc2)cc1 (stereo not drawn) [BIFONAZOLE]" experimental_target="Aspergillus versicolor" reported_result="640 µM"
compound=O=C1N/C(=N/c2nc(C34CC5CC(CC(C5)C3)C4)cs2)S/C1=C\c1ccc([N+](=O)[O-])cc1 experimental_target="Aspergillus versicolor" reported_result="21.5 µM"
compound=O=C1N/C(=N/c2nc(C34CC5CC(CC(C5)C3)C4)cs2)S/C1=C\c1cccc([N+](=O)[O-])c1 experimental_target="Aspergillus versicolor" reported_result="21.5 µM"
compound=O=C1N/C(=N/c2nc(C34CC5CC(CC(C5)C3)C4)cs2)S/C1=C\c1ccc(Cl)cc1 experimental_target="Aspergillus versicolor" reported_result="21.9 µM"

###

MIC reference
# Test system: Trichoderma viride
# assay.notes: Antifungal activity against Trichoderma viride IAM 5061 after 72 hrs by serial dilution method
# Assay type: functional
# condition.summary: IAM 5061, 72 h
measured.property: MIC

compound=COc1cc(/C=C2\S/C(=N\c3nc(C45CC6CC(CC(C6)C4)C5)cs3)NC2=O)ccc1O reported_result="11 µM"
compound=O=C1N/C(=N/c2nc(C34CC5CC(CC(C5)C3)C4)cs2)S/C1=C\c1ccccc1[N+](=O)[O-] reported_result="10.8 µM"
compound=O=C1N/C(=N/c2nc(C34CC5CC(CC(C5)C3)C4)cs2)S/C1=C\c1ccccc1Cl reported_result="11 µM"
compound="c1ccc(-c2ccc(C(c3ccccc3)n3ccnc3)cc2)cc1 (stereo not given) [BIFONAZOLE]" reported_result="640 µM"
compound=COc1cc(/C=C2\S/C(=N\c3nc(C45CC6CC(CC(C6)C4)C5)cs3)NC2=O)cc(OC)c1O reported_result="10.5 µM"

###

# Tested on: Talaromyces funiculosus
# assay.notes: Antifungal activity against Penicillium funiculosum ATCC 36839 after 72 hrs by serial dilution method
# Format: functional
# condition.summary: ATCC 36839, 72 h
measured.property: log10 of MIC (log10 of the value in µM)

molecule=O=C1N/C(=N/c2nc(C34CC5CC(CC(C5)C3)C4)cs2)S/C1=C\c1ccccc1Cl experimental_target="Talaromyces funiculosus" measured_property="log10 of MIC" reported_result=1.34
molecule=COc1cc(/C=C2\S/C(=N\c3nc(C45CC6CC(CC(C6)C4)C5)cs3)NC2=O)ccc1O experimental_target="Talaromyces funiculosus" measured_property="log10 of MIC" reported_result=1.21
molecule="CC(=O)N1CCN(c2ccc(OCC3COC(Cn4ccnc4)(c4ccc(Cl)cc4Cl)O3)cc2)CC1 (centres undefined) [KETOCONAZOLE]" experimental_target="Talaromyces funiculosus" measured_property="log10 of MIC" reported_result=2.58
molecule=COc1ccc(/C=C2\S/C(=N\c3nc(C45CC6CC(CC(C6)C4)C5)cs3)NC2=O)cc1 experimental_target="Talaromyces funiculosus" measured_property="log10 of MIC" reported_result=1.06
molecule=O=C1N/C(=N/c2nc(C34CC5CC(CC(C5)C3)C4)cs2)S/C1=C\c1ccccc1[N+](=O)[O-] experimental_target="Talaromyces funiculosus" measured_property="log10 of MIC" reported_result=1.03
molecule=O=C1N/C(=N/c2nc(C34CC5CC(CC(C5)C3)C4)cs2)S/C1=C\c1ccc(O)cc1 experimental_target="Talaromyces funiculosus" measured_property="log10 of MIC" reported_result=1.24
molecule=O=C1CS/C(=N/c2nc(C34CC5CC(CC(C5)C3)C4)cs2)N1 experimental_target="Talaromyces funiculosus" measured_property="log10 of MIC" reported_result=1.25
molecule=COc1cc(/C=C2\S/C(=N\c3nc(C45CC6CC(CC(C6)C4)C5)cs3)NC2=O)cc(OC)c1O experimental_target="Talaromyces funiculosus" measured_property="log10 of MIC" reported_result=1.02
molecule=O=C1N/C(=N/c2nc(C34CC5CC(CC(C5)C3)C4)cs2)S/C1=C\c1ccc([N+](=O)[O-])cc1 experimental_target="Talaromyces funiculosus" measured_property="log10 of MIC" reported_result=1.33

###

# Test system: Fulvia fulva
# assay.notes: Antifungal activity against Fulvia fulva TK 5318 after 72 hrs by serial sub-cultivation method
# Assay type: functional
# condition.summary: TK 5318, 72 h
Binarize MFC at 20 µM; below is Criterion met, at or above is Criterion not met.

compound="c1ccc(-c2ccc(C(c3ccccc3)n3ccnc3)cc2)cc1 (stereo not drawn)" discrete_label="Criterion not met"
compound=O=C1N/C(=N/c2nc(C34CC5CC(CC(C5)C3)C4)cs2)S/C1=C\c1cccc(Cl)c1 discrete_label="Criterion not met"
compound=COc1ccc(/C=C2\S/C(=N\c3nc(C45CC6CC(CC(C6)C4)C5)cs3)NC2=O)cc1 discrete_label="Criterion not met"
compound="CC(=O)N1CCN(c2ccc(OCC3COC(Cn4ccnc4)(c4ccc(Cl)cc4Cl)O3)cc2)CC1 (stereo not drawn)" discrete_label="Criterion not met"
compound=O=C1N/C(=N/c2nc(C34CC5CC(CC(C5)C3)C4)cs2)S/C1=C\c1ccccc1[N+](=O)[O-] discrete_label="Criterion met"
compound=COc1cc(/C=C2\S/C(=N\c3nc(C45CC6CC(CC(C6)C4)C5)cs3)NC2=O)cc(OC)c1O discrete_label="Criterion not met"
compound=O=C1CS/C(=N/c2nc(C34CC5CC(CC(C5)C3)C4)cs2)N1 discrete_label="Criterion met"
compound=O=C1N/C(=N/c2nc(C34CC5CC(CC(C5)C3)C4)cs2)S/C1=C\c1ccc(Cl)cc1 discrete_label="Criterion met"

###

Catalogue of MIC readings, one per entry.
# Tested on: Salmonella typhimurium
# assay.notes: Antibacterial activity against Salmonella Typhimurium ATCC 13311 after 24 hrs
# Format: functional, Salmonella enterica subsp. enterica serovar Typhimurium
# condition.summary: Salmonella enterica, ATCC 13311, 24 h
measured.property: MIC (µM)

smiles_entry=O=C1N/C(=N/c2nc(C34CC5CC(CC(C5)C3)C4)cs2)S/C1=C\c1ccc(Cl)cc1 measured_property=MIC reported_result=21.9
smiles_entry=COc1cc(/C=C2\S/C(=N\c3nc(C45CC6CC(CC(C6)C4)C5)cs3)NC2=O)cc(OC)c1O measured_property=MIC reported_result=10.5
smiles_entry=O=C1N/C(=N/c2nc(C34CC5CC(CC(C5)C3)C4)cs2)S/C1=C\c1ccccc1[N+](=O)[O-] measured_property=MIC reported_result=21.5
smiles_entry=O=C1CS/C(=N/c2nc(C34CC5CC(CC(C5)C3)C4)cs2)N1 measured_property=MIC reported_result=23.8
smiles_entry=O=C1N/C(=N/c2nc(C34CC5CC(CC(C5)C3)C4)cs2)S/C1=C\c1cccc(Cl)c1 measured_property=MIC reported_result=21.9
smiles_entry=O=C1N/C(=N/c2nc(C34CC5CC(CC(C5)C3)C4)cs2)S/C1=C\c1ccc([N+](=O)[O-])cc1 measured_property=MIC reported_result=21.5
smiles_entry=COc1cc(/C=C2\S/C(=N\c3nc(C45CC6CC(CC(C6)C4)C5)cs3)NC2=O)ccc1O measured_property=MIC reported_result=21.9
smiles_entry=COc1ccc(/C=C2\S/C(=N\c3nc(C45CC6CC(CC(C6)C4)C5)cs3)NC2=O)cc1 measured_property=MIC reported_result=11.6
smiles_entry=CN[C@@H]1[C@H](O[C@H]2[C@H](O[C@H]3[C@H](O)[C@@H](O)[C@H](N=C(N)N)[C@@H](O)[C@@H]3N=C(N)N)O[C@@H](C)[C@]2(O)C=O)O[C@@H](CO)[C@H](O)[C@H]1O measured_property=MIC reported_result=172
smiles_entry=CC1(C)S[C@@H]2[C@H](NC(=O)[C@H](N)c3ccccc3)C(=O)N2[C@H]1C(=O)O measured_property=MIC reported_result=248
smiles_entry=O=C1N/C(=N/c2nc(C34CC5CC(CC(C5)C3)C4)cs2)S/C1=C\c1cccc([N+](=O)[O-])c1 measured_property=MIC reported_result=10.8
smiles_entry=O=C1N/C(=N/c2nc(C34CC5CC(CC(C5)C3)C4)cs2)S/C1=C\c1ccc(O)cc1 measured_property=MIC reported_result=11.5
smiles_entry=O=C1N/C(=N/c2nc(C34CC5CC(CC(C5)C3)C4)cs2)S/C1=C\c1ccccc1Cl measured_property=MIC reported_result=21.9
